molecular target: human orexin-1 receptor (Homo sapiens (Human)); test: In vitro assay: intracellular calcium measurements (FLIPR), antagonistic activity; settings: CHO cells expressing human orexin-1 receptor, orexin-A agonist, geometric mean, read-out: IC50 Ox1
Sequence (O43613 whole entry): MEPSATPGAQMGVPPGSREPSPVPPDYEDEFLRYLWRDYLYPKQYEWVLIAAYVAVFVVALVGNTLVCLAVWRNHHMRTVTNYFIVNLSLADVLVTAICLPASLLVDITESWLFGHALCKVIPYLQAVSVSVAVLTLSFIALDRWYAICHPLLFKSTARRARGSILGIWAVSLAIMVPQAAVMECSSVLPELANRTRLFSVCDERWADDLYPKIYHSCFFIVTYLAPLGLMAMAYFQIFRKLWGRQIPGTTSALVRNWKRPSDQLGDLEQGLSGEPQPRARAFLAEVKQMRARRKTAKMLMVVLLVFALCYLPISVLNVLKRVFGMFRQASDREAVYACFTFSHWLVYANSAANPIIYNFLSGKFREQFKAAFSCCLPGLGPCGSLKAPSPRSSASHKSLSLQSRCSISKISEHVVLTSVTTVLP
pIC50: −log10 of the molar value.
Readout Type: pIC50

Compound Structure: Cc1cc2nc([C@]3(C)CCCN3C(=O)c3cc(F)ccc3-n3nccn3)[nH]c2cc1C
Target Or System: human orexin-1 receptor (Homo sapiens (Human))
pIC50: 6.81
--
Compound Structure: Cc1c(Cl)ccc2[nH]c([C@]3(C)CCCN3C(=O)c3cc(Cl)ccc3-n3nccn3)nc12
Target Or System: human orexin-1 receptor (Homo sapiens (Human))
pIC50: 8.70

P. Cc1ccc(-c2ccccc2C)c(C(=O)N2CCC[C@@]2(C)c2nc3cc(C)c(C)cc3[nH]2)c1
Q. C=C1C[C@@H](c2nc3cc(SC)ccc3[nH]2)N(C(=O)c2nc(C)sc2-c2ccc(C)c(C)c2)C1
R. COc1cccc(-c2ccc(C)cc2C(=O)N2CCC[C@@]2(C)c2nc3cc(C(F)(F)F)ccc3[nH]2)c1
S. Cc1nc(C(=O)N2CC[C@H](C)[C@H]2c2nc3cc(Cl)c(C)cc3[nH]2)c(-c2ccc(Cl)cc2)s1
Query: Ordering: ascending pIC50. Put the labels in the requested order and list them out.
Reply: P, R, Q, S
(P: 6.92, R: 7.64, Q: 8.10, S: 8.52)

====

target: human orexin-2 receptor (Homo sapiens (Human), UniProt O43614); assay: In vitro assay: intracellular calcium measurements (FLIPR), antagonistic activity; conditions: CHO cells expressing human orexin-2 receptor, orexin-A agonist, geometric mean, read-out: IC50 Ox2
Sequence (O43614 whole entry): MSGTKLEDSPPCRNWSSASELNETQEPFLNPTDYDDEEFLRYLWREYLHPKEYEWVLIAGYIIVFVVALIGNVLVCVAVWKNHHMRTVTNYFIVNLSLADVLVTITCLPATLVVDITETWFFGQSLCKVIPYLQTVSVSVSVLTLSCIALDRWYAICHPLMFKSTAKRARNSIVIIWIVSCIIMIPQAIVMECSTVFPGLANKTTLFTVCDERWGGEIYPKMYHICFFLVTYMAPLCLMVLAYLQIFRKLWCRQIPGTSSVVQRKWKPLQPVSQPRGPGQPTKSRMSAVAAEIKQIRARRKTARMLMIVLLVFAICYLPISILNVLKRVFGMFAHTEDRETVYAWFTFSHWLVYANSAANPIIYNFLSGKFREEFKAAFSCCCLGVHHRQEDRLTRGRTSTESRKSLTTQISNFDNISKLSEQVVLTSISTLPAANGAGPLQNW
Readout Type: IC50 (nM)

Solved entries (count: 5):
Molecule: COc1cc2nc([C@]3(C)CCCN3C(=O)c3ccccc3-n3nccn3)[nH]c2cc1OC
Recorded Result: 57
//
Molecule: COc1ccc(-c2ccccc2F)c(C(=O)N2CCC[C@@]2(C)c2nc3c(C)c(Cl)ccc3[nH]2)c1F
Recorded Result: 21
//
Molecule: C[C@@]1(c2nc3cc(C(F)(F)F)ccc3[nH]2)CCCN1C(=O)c1cc(F)ccc1-n1nccn1
Recorded Result: 355
//
Molecule: C=C1CN(C(=O)c2ccccc2-c2ccc(C)c(C)c2)C(C)(c2nc3cc(OC)ccc3[nH]2)C1 (stereo not drawn)
Recorded Result: 90
//
Molecule: Cc1nc(C(=O)N2CC[C@H](C)[C@H]2c2nc3c(C(F)(F)F)cccc3[nH]2)c(-c2ccc(F)cc2)s1
Recorded Result: 752

P. Cc1nc(C(=O)N2CC[C@H](C)[C@H]2c2nc3cc(Cl)ccc3[nH]2)c(-c2cccc(Cl)c2)s1
Q. Cc1ccc(-n2nccn2)c(C(=O)N2CCC[C@@]2(C)c2nc3cc(C(F)(F)F)c(F)cc3[nH]2)c1
R. Cc1c(Cl)ccc2[nH]c([C@@H]3[C@@H](C)CCN3C(=O)c3cc(Cl)ccc3-c3ccccc3)nc12
S. CSc1cccc2nc([C@@H]3CCCN3C(=O)c3cc(C#N)ccc3-n3nccn3)[nH]c12
T. Cc1cccc(-c2sc(C)nc2C(=O)N2CC[C@H](C)[C@H]2c2nc3cc(C(F)(F)F)ccc3[nH]2)c1
Query: Ordering: ascending IC50. Put the labels in the requested order and list them out.
Reply: S, Q, R, T, P

P. CO[C@H]1CN(C(=O)c2c(-n3nccn3)ccc(C)c2F)C(C)(c2nc3c(C)c(Cl)ccc3[nH]2)C1 (stereo partly drawn)
Q. Cc1ccc(-n2cccn2)c(C(=O)N2CCC[C@@]2(C)c2nc3c(F)c(F)ccc3[nH]2)c1
Query: Could you please tell me which of these two has the higher IC50: P or Q ? Write down the label of the entry you select.
Reply: Q

a. Cc1cc2[nH]c([C@@H]3[C@@H](C)CCN3C(=O)c3cc(F)ccc3-c3ncccn3)nc2cc1Cl
b. C=C1CC(c2nc3cc(C)c(C)cc3[nH]2)N(C(=O)c2cc(C)sc2-c2ccc(C)c(C)c2)C1 (racemic)
Query: Record comparison, field IC50: mark the lower of a and b . Write down the label of the entry you select.
Reply: b
(b: 4 nM, a: 501 nM)

I. COc1cc2nc([C@@H]3[C@@H](C)CCN3C(=O)c3ccccc3-c3ccc(C)cc3)[nH]c2cc1OC
II. CSc1cccc2nc([C@@H]3CCCN3C(=O)c3nc(C)sc3-c3cccc(C(F)(F)F)c3)[nH]c12
III. C=C1C[C@@H](c2nc3cc(C(C)(C)C)ccc3[nH]2)N(C(=O)c2cc(F)ccc2-n2nccn2)C1
IV. COc1cccc(C#Cc2ccccc2C(=O)N2CC[C@H](C)[C@H]2c2nc3cc(Cl)c(C)cc3[nH]2)c1
V. Cc1nc(C(=O)N2CCCC2c2nc3c(C(F)(F)F)cc(C(F)(F)F)cc3[nH]2)c(-c2ccccc2)s1 (stereo not drawn)
Query: Ordering: ascending IC50. Put the labels in the requested order and list them out.
Reply: III, II, IV, V, I

A. Cc1cc(C)c2nc(C3CCCN3C(=O)c3nc(C)sc3-c3ccccc3)[nH]c2c1 (stereo not drawn)
B. CSc1ccc2nc([C@@H]3CCCN3C(=O)c3cncnc3-c3ccc(Cl)c(Cl)c3)[nH]c2c1
C. C=C1C[C@@H](c2nc3c(C)cc(C)cc3[nH]2)N(C(=O)c2cc(C)ccc2-n2nccn2)C1
Query: Ordering: ascending IC50. Put the labels in the requested order and list them out.
Reply: C, A, B
(C: 4 nM, A: 22 nM, B: 121 nM)

P. CSc1ccc2nc([C@@H]3CCCN3C(=O)c3nc(C)sc3-c3ccc(Br)cc3)[nH]c2c1
Q. COc1cccc(-c2sc(C)nc2C(=O)N2CCC[C@@]2(C)c2nc3cc(OC(F)(F)F)ccc3[nH]2)c1
R. Cc1cccc(-c2sc(C)nc2C(=O)N2CC[C@H](C)[C@H]2c2nc3c(C(F)(F)F)cccc3[nH]2)c1
S. CO[C@H]1CN(C(=O)c2cc(F)ccc2-n2nccn2)C(C)(c2nc3c(C)c(Cl)ccc3[nH]2)C1 (stereo partly drawn)
Query: Ordering: ascending IC50. Put the labels in the requested order and list them out.
Reply: S, P, Q, R
(S: 13 nM, P: 56 nM, Q: 136 nM, R: 308 nM)

P. C=C1C[C@@H](c2nc3cc(OC)ccc3[nH]2)N(C(=O)c2c(F)cccc2-n2nccn2)C1
Q. CO[C@@H]1C[C@@H](c2nc3ccc(Cl)c(C)c3[nH]2)N(C(=O)c2nc(N(C)C)sc2-c2ccc(C)c(C)c2)C1
Query: Record comparison, field IC50: mark the lower of P and Q . Write down the label of the entry you select.
Reply: Q
(Q: 10 nM, P: 61 nM)

====

target: human orexin-2 receptor (Homo sapiens (Human), UniProt O43614); test: In vitro assay: intracellular calcium measurements (FLIPR), antagonistic activity; settings: CHO cells expressing human orexin-2 receptor, orexin-A agonist, geometric mean, read-out: IC50 Ox2
pIC50: −log10 of the molar value.
Readout Type: pIC50

Solved entries (count: 4):
Molecule: Cc1ccc(-c2ccccc2F)c(C(=O)N2CCC[C@@]2(C)c2nc3c(C)c(C)ccc3[nH]2)c1
Target Or System: human orexin-2 receptor (Homo sapiens (Human), UniProt O43614)
pIC50: 7.68
--
Molecule: Cc1cc(C(=O)N2CCC[C@@]2(C)c2nc3cc(C(F)(F)F)ccc3[nH]2)c(-n2nccn2)cc1C
Target Or System: human orexin-2 receptor (Homo sapiens (Human), UniProt O43614)
pIC50: 7.89
--
Molecule: CSc1ccc2[nH]c([C@@H]3CCCN3C(=O)c3nc(C)sc3-c3cccc(Cl)c3)nc2c1
Target Or System: human orexin-2 receptor (Homo sapiens (Human), UniProt O43614)
pIC50: 7.35
--
Molecule: Cc1ccc(-c2ccccc2F)c(C(=O)N2CCC[C@@]2(C)c2nc3cc(C(F)(F)F)ccc3[nH]2)c1
Target Or System: human orexin-2 receptor (Homo sapiens (Human), UniProt O43614)
pIC50: 7.01

A. Cc1ccc(-n2nccn2)c(C(=O)N2CCC[C@@]2(C)c2nc3c(C(F)(F)F)cccc3[nH]2)c1
B. COc1ccc2nc([C@@H]3CCCN3C(=O)c3nc(C)sc3-c3ccc(Br)cc3)[nH]c2c1
C. Cc1nc(C(=O)N2CCCC2c2nc3cc(C(F)(F)F)ccc3[nH]2)c(-c2ccccc2)s1 (stereo not drawn)
D. C=C1C[C@@H](c2nc3cccc(C)c3[nH]2)N(C(=O)c2nc(C)sc2-c2ccc(Cl)cc2)C1
E. CO[C@H]1CN(C(=O)c2nc(C)sc2-c2ccccc2)C(C)(c2nc3c(C)c(Cl)ccc3[nH]2)C1 (stereo partly drawn)
Query: Put the items in sequence by pIC50, from largest down. Put the labels in the requested order and list them out.
Reply: D, E, A, B, C
(D: 8.15, E: 7.92, A: 7.12, B: 6.82, C: 6.54)

a. Cc1ccc(-n2cccn2)c(C(=O)N2CCC[C@@]2(C)c2nc3c(C)c(Cl)ccc3[nH]2)n1
b. Cc1nc(C(=O)N2CC[C@H](C)[C@H]2c2nc3c(C(F)(F)F)cccc3[nH]2)c(-c2ccc(Br)cc2)s1
Query: Could you please tell me which of these two has the higher pIC50: a or b ? Write down the label of the entry you select.
Reply: a

P. C=C1C[C@@H](c2nc3cc(OC)ccc3[nH]2)N(C(=O)c2nc(N3CCCC3)sc2-c2cccc(F)c2)C1
Q. Cc1ccc(-c2ccccc2)c(C(=O)N2CC[C@H](C)[C@H]2c2nc3cc(Cl)c(C)cc3[nH]2)c1
Query: Could you please tell me which of these two has the higher pIC50: P or Q ? Write down the label of the entry you select.
Reply: P

I. C=C1C[C@@H](c2nc3cc(C(C)(C)C)ccc3[nH]2)N(C(=O)c2c(C)cccc2-n2nccn2)C1
II. C[C@@]1(c2nc3cc(C(F)(F)F)c(Cl)cc3[nH]2)CCCN1C(=O)c1ccccc1-n1cccn1
III. COc1cc2nc([C@]3(C)CCCN3C(=O)c3c(F)cccc3-n3nccn3)[nH]c2cc1OC
IV. C=C1CC(c2nc3c(OC)ccc(OC)c3[nH]2)N(C(=O)c2nc(C3CC3)sc2-c2cccc(C)c2)C1 (stereo not drawn)
Query: Put the items in sequence by pIC50, from largest down. Put the labels in the requested order and list them out.
Reply: IV, I, II, III
(IV: 8.52, I: 7.60, II: 6.61, III: 6.34)
